- System: PC-3
- ASSAY METHOD TEXT: Antiproliferative activity against human PC-3 cells assessed as reduction in cell viability incubated for 72 hrs by MTT assay
- Format: functional, cell-based
- CONDITIONS USED: PC-3, 72 h
pIC50: −log10 of the molar value.

{"SMILES REPR": "CCCCCCCCCc1ccc(C(=O)Nc2ccc(C)cc2C(=O)O)cc1", "SIGN QUALIFIER": "=", "pIC50": 4.52}
{"SMILES REPR": "CCCCCCCSc1ccc(C(=O)Nc2ccc(C)cc2C(=O)O)cc1", "SIGN QUALIFIER": "=", "pIC50": 4.84}
{"SMILES REPR": "CCCCCCCCCCCCc1ccc(C(=O)Nc2cc(C)ccc2C(=O)O)cc1", "SIGN QUALIFIER": "=", "pIC50": 4.77}
{"SMILES REPR": "CCCCCCCCCc1ccc(C(=O)Nc2cc(C)ccc2C(=O)OC)cc1", "SIGN QUALIFIER": "<", "pIC50": 3.92}
{"SMILES REPR": "CCCCCCCCNc1ccc(C(=O)Nc2ccc(C)cc2C(=O)O)cc1", "SIGN QUALIFIER": "=", "pIC50": 4.44}
{"SMILES REPR": "CCCCCCCCNc1ccc(C(=O)Nc2cc(C)ccc2C(=O)O)cc1", "SIGN QUALIFIER": "=", "pIC50": 4.70}
{"SMILES REPR": "CCCCCCCNc1ccc(C(=O)Nc2ccccc2C(=O)O)cc1", "SIGN QUALIFIER": "=", "pIC50": 4.38}
{"SMILES REPR": "CCCCCCCOc1ccc(C(=O)Nc2ccc(C)cc2C(=O)O)cc1", "SIGN QUALIFIER": "=", "pIC50": 4.37}
{"SMILES REPR": "CCCCCCCNc1ccc(C(=O)Nc2ccc(C)cc2C(=O)O)cc1", "SIGN QUALIFIER": "=", "pIC50": 4.50}
{"SMILES REPR": "CCCCCCCCc1ccc(C(=O)Nc2ccc(C(F)(F)F)cc2C(=O)O)cc1", "SIGN QUALIFIER": "=", "pIC50": 4.85}
{"SMILES REPR": "CCCCCCCCSc1ccc(C(=O)Nc2ccc(C)cc2C(=O)O)cc1", "SIGN QUALIFIER": "=", "pIC50": 4.82}

----------
- System: PC-3
- ASSAY METHOD TEXT: Antiproliferative activity against human PC-3 cells assessed as reduction in cell viability incubated for 72 hrs by MTT assay
- Format: functional, cell-based
- CONDITIONS USED: PC-3, 72 h
pIC50: −log10 of the molar value.

{"SMILES REPR": "CCCCCCCCCc1ccc(C(=O)Nc2cc(C)ccc2C(=O)O)cc1", "TARGET": "PC-3", "SIGN QUALIFIER": "=", "pIC50": 4.74}
{"SMILES REPR": "CCCCCCCCCCc1ccc(C(=O)Nc2ccc(C)cc2C(=O)O)cc1", "TARGET": "PC-3", "SIGN QUALIFIER": "=", "pIC50": 4.64}
{"SMILES REPR": "CCCCCCCCCCCCc1ccc(C(=O)Nc2ccc(C)cc2C(=O)O)cc1", "TARGET": "PC-3", "SIGN QUALIFIER": "=", "pIC50": 4.78}
{"SMILES REPR": "CCCCCCCCSc1ccc(C(=O)Nc2cc(C)ccc2C(=O)O)cc1", "TARGET": "PC-3", "SIGN QUALIFIER": "=", "pIC50": 4.59}
{"SMILES REPR": "CCCCCCCOc1ccc(C(=O)Nc2ccccc2C(=O)O)cc1", "TARGET": "PC-3", "SIGN QUALIFIER": "=", "pIC50": 4.52}
{"SMILES REPR": "Cc1ccc(C(=O)O)c(NC(=O)c2ccc(N)cc2)c1", "TARGET": "PC-3", "SIGN QUALIFIER": "<", "pIC50": 3.92}
{"SMILES REPR": "CCCCCCCCOc1ccc(C(=O)Nc2ccc(C)cc2C(=O)O)cc1", "TARGET": "PC-3", "SIGN QUALIFIER": "=", "pIC50": 4.66}
{"SMILES REPR": "CCCCCCCSc1ccc(C(=O)Nc2ccccc2C(=O)O)cc1", "TARGET": "PC-3", "SIGN QUALIFIER": "=", "pIC50": 4.56}

----------
- TARGET: Serine/threonine-protein kinase PLK1 (Homo sapiens)
- Sequence (P53350 whole entry): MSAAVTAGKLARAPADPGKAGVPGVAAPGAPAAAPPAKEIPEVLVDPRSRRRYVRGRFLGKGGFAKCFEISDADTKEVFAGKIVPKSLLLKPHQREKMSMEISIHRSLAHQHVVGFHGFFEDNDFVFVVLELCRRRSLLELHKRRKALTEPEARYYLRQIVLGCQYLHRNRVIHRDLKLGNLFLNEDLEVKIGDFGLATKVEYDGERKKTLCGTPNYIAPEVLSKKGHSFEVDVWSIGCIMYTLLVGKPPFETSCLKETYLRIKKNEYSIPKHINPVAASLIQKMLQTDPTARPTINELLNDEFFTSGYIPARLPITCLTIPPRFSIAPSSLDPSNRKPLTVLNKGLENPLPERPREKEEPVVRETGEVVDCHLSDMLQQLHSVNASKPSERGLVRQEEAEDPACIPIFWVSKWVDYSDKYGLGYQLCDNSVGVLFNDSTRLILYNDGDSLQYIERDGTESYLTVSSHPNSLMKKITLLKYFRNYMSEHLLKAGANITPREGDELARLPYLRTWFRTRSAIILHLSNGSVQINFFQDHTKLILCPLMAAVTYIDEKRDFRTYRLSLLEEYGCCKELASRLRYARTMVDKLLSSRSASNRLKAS
pIC50: −log10 of the molar value.
Each record here notes measured pIC50.
MEASUREMENT TYPE: pIC50

{"SMILES REPR": "CCCCCCCSc1ccc(C(=O)Nc2ccc(C)cc2C(=O)O)cc1", "SIGN QUALIFIER": "=", "MEASUREMENT": 4.63}
{"SMILES REPR": "CCCCCCCCCCCCc1ccc(C(=O)Nc2ccc(C)cc2C(=O)O)cc1", "SIGN QUALIFIER": "=", "MEASUREMENT": 4.58}
{"SMILES REPR": "Cc1ccc(C(=O)O)c(NC(=O)c2ccc(N)cc2)c1", "SIGN QUALIFIER": "<", "MEASUREMENT": 3.22}
{"SMILES REPR": "CCCCCCCOc1ccc(C(=O)Nc2ccc(C)cc2C(=O)O)cc1", "SIGN QUALIFIER": "=", "MEASUREMENT": 4.46}
{"SMILES REPR": "CCCCCCCNc1ccc(C(=O)Nc2ccccc2C(=O)O)cc1", "SIGN QUALIFIER": "=", "MEASUREMENT": 4.06}
{"SMILES REPR": "CCCCCCCCNc1ccc(C(=O)Nc2ccc(C)cc2C(=O)O)cc1", "SIGN QUALIFIER": "=", "MEASUREMENT": 4.14}
{"SMILES REPR": "CCCCCCCOc1ccc(C(=O)Nc2ccccc2C(=O)O)cc1", "SIGN QUALIFIER": "=", "MEASUREMENT": 4.43}
{"SMILES REPR": "CCCCCCCNc1ccc(C(=O)Nc2ccc(C)cc2C(=O)O)cc1", "SIGN QUALIFIER": "=", "MEASUREMENT": 4.38}

----------
- TARGET: Serine/threonine-protein kinase PLK1 (Homo sapiens)
- ASSAY METHOD TEXT: Binding affinity to PLK1 in human PC-3 cells incubated for 2 hrs followed by heat shock for 10 mins by cellular thermal shift assay
pEC50: −log10 of the molar value.

{"SMILES REPR": "CCCCCCCCSc1ccc(C(=O)Nc2ccc(C)cc2C(=O)O)cc1", "pEC50": 6.19}
